Molecular target: SMARCA2 (Homo sapiens, UniProt P51531)
Sequence (P51531 whole entry): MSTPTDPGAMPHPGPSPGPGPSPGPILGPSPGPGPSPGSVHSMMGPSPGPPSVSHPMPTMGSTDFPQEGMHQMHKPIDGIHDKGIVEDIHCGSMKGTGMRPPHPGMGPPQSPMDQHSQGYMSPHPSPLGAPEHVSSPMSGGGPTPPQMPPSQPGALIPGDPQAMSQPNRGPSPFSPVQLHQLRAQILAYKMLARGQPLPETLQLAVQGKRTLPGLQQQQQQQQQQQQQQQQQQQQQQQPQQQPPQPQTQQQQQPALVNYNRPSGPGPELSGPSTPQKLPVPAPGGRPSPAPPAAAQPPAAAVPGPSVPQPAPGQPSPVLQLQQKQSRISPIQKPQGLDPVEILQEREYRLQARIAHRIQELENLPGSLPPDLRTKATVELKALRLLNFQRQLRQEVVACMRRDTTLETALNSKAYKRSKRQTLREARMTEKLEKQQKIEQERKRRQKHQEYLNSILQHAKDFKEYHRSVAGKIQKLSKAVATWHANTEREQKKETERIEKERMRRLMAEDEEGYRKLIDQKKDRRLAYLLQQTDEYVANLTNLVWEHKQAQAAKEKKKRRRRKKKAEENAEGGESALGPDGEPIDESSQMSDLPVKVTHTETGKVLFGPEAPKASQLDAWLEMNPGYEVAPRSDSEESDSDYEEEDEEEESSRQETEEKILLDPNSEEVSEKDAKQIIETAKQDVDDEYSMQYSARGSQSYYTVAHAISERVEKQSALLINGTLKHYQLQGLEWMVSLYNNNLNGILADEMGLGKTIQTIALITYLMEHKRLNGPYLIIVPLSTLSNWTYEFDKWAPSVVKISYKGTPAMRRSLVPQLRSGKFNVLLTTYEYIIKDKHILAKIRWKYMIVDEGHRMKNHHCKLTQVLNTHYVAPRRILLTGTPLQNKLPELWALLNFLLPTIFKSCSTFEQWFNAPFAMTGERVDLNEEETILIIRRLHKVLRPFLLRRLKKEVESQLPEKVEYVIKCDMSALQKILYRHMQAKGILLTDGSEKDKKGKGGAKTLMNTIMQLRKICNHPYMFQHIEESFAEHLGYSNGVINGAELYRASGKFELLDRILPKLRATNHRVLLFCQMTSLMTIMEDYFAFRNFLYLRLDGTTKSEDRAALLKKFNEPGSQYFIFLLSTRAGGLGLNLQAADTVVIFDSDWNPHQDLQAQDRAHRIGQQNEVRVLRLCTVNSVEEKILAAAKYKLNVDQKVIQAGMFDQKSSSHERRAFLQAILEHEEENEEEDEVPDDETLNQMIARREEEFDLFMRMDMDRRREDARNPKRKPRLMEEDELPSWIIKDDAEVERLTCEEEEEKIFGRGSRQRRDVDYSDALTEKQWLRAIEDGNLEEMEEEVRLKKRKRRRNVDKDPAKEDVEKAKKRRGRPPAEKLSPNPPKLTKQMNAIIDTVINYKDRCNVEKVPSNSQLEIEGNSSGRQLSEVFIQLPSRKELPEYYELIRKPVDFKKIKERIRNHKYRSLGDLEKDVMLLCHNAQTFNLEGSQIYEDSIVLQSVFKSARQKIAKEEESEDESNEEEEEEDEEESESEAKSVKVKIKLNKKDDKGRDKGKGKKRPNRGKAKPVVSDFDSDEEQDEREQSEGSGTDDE
Test: SMARCA2 degradation in SW1573 cells (Western blot)
Format: cell-based
Design: endogenous in cells; host or cells: SW1573
Details: 1 nM, 24 hours
parameter-measured: Degradation rate of SMARCA2 in SW1573 cells (%)
Hi! Could you send only the number? It should be in %, unit omitted.

Cc1ncsc1-c1ccc([C@H](C)NC(=O)[C@@H]2C[C@@H](O)CN2C(=O)[C@@H](NC(=O)[C@H]2CC[C@H](CN3CC4(CCC(n5cc(-c6cc(-c7ccccc7O)nnc6N)cn5)CC4)C3)CC2)C(C)(C)C)cc1 [SMD-3040, reference compound] :: 89
Cn1c(=O)n(C2CCC(=O)NC2=O)c2cc3c(cc21)OC1(CC3)CCN(C2CC3(CCC(C#Cc4cc(-c5ccccc5O)nnc4N)CC3)C2)CC1 (centres unmarked) :: 72
Nc1nnc(-c2ccccc2O)cc1C#CC1CCC2(CC1)CC(N1CCN3c4ccc(C(=O)N[C@H]5CCC(=O)NC5=O)cc4OC[C@@H]3C1)C2 (some centres unmarked) :: 12
CN(C(=O)c1ccc2c(c1)OC[C@H]1CN(C3CC4(CCC(C#Cc5cc(-c6ccccc6O)nnc5N)CC4)C3)CCN21)[C@H]1CCC(=O)NC1=O (some centres unmarked) :: 16

# context switch: different compound, same Degradation rate of SMARCA2 in SW1573 cells (%)
Q: May I ask what Degradation rate of SMARCA2 in SW1573 cells (%) has been recorded for Cn1c(=O)n(C2CCC(=O)NC2=O)c2ccc3c(c21)OCC31CCN(C[C@H]2CC[C@H](n3cc(-c4cc(-c5ccccc5O)nnc4N)cn3)CC2)CC1 (some centres unmarked) ?
Ans: 100
